- system: human D1 receptors (Homo sapiens)
- Construct: expressed in transfected cells; host or cells: Ltk- cells (mouse fibroblasts); membrane preparation
- assay remarks: Radioligand binding competition assay at D1 receptor
pKi: −log10 of the molar value.
quantity measured: pKi

compound_structure_string=CN1CCc2cc(Cl)c(O)cc2[C@H]2c3ccc(NC(=O)Nc4c(Cl)cccc4Cl)cc3CC[C@@H]21 reported_value="> 8.30"
compound_structure_string=COc1ccc(OC(=O)Nc2ccc3c(c2)CC[C@H]2[C@H]3c3cc(O)c(Cl)cc3CCN2C)cc1 reported_value="> 8.30"

Would you kindly look at the next entry?
[ask] Return reported pKi; argument: CN1CCc2cc(Cl)c(O)cc2[C@H]2c3ccc(NS(=O)(=O)Cc4ccccc4)cc3CC[C@@H]21
[reply] > 8.30

----------
A collection of molecules and their measured Ki
- system: human D1 receptors (Homo sapiens, UniProt P21728)
- Construct: expressed in transfected cells; host or cells: Ltk- cells (mouse fibroblasts); membrane preparation
- Sequence (P21728 whole entry): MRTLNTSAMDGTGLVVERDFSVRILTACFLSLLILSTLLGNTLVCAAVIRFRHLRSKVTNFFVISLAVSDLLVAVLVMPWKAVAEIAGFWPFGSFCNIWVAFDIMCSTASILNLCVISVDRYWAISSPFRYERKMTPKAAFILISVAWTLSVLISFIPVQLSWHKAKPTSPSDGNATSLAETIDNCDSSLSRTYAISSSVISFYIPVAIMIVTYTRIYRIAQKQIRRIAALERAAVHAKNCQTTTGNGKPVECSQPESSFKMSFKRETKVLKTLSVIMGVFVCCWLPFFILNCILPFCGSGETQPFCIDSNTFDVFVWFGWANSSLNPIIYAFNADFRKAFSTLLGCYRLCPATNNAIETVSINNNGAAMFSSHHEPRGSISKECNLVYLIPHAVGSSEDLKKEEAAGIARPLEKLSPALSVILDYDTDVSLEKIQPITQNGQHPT
- assay remarks: Radioligand binding competition assay at D1 receptor
- assay conditions: class by Ki (D1) and selectivity (Ki D2 / Ki D1); human D1 and D2 (long variant) receptors, Ltk- cell membranes; read-out: D1 binding and D2:D1 Selectivity
- Protocol: Affinity values (Ki) of compounds at human D1 and D2 receptors were ascertained using radioligand binding competition assays. Ltk-cells expressing D1 and D2 (long variant) receptors were lysed in hypotonic buffer for membrane preparation. […] Bound radioactivity on the dried filters was quantified by liquid scintillation counting. Selectivity is determined by dividing Ki for D2 receptor by Ki for D1 receptor.

molecule=CN1CCc2cc(Cl)c(O)cc2[C@H]2c3cccc(CNCc4ccccc4)c3CC[C@@H]21 quantity_measured=Ki reported_value="< 5 nM"
molecule="CCCN(Cc1ccc(C2CN(C)CCc3cc(Cl)c(O)cc32)cc1)C(=O)Nc1ccccc1 (centres unmarked)" quantity_measured=Ki reported_value="< 10 nM"
molecule="C[C@@H](NCc1ccc(C2CN(C)CCc3cc(Cl)c(O)cc32)cc1)C1CCCCC1 (some centres unmarked)" quantity_measured=Ki reported_value="< 5 nM"
molecule=COC(=O)Nc1ccc2c(c1)CC[C@H]1[C@H]2c2cc(O)c(Cl)cc2CCN1C quantity_measured=Ki reported_value="< 5 nM"
molecule=CC(=O)N(CCCCc1ccccc1)c1ccc2c(c1)[C@@H]1c3cc(O)c(Cl)cc3CCN(C)[C@H]1CC2 quantity_measured=Ki reported_value="10 to 50 nM"
molecule="CN1CCc2cc(Cl)c(O)cc2C2c3cccc(C(=O)NCc4ccncc4)c3CCC21 (centres unmarked)" quantity_measured=Ki reported_value="< 10 nM"
molecule="CN1CCc2cc(Cl)c(O)cc2C2c3cccc(C(=O)NCCc4ccccc4)c3CCC21 (centres unmarked)" quantity_measured=Ki reported_value="< 5 nM"

[ask] Requested read-out: Ki. Entry: CN1CCc2cc(Cl)c(O)cc2C(c2ccc(CN(C3CCC3)S(C)(=O)=O)cc2)C1 (centres unmarked)
[reply] < 5 nM

----------
- system: human D1 receptors (Homo sapiens)
- Construct: expressed in transfected cells; host or cells: Ltk- cells (mouse fibroblasts); membrane preparation
- assay remarks: Radioligand binding competition assay at D1 receptor
- assay conditions: membranes of Ltk- cells expressing human D1; 1 nM [3H] compound of formula III; 1 hour at room temperature; read-out: Ki (D1)
quantity measured: pKi
# log scale: pKi equals minus log10 of the concentration in mol/L

[ask] human D1 receptors (Homo sapiens) / pKi / CN1CCc2cc(Cl)c(O)cc2[C@H]2c3ccc(NS(C)(=O)=O)cc3CC[C@@H]21 : value?
[reply] 9.35
